Provenance of the data: PubChem BioAssay (NCI)

- Tested on: SR leukemia
- Assay info: NCI-60 one-dose screen, 48 h
- Test conditions: 10 µM unless noted
About 83,000 compounds went through this panel and 20% of them were active in at least one assay; those are over-represented in the sample as a whole. Activity calls are given as the source filed them. Rule for the calls: active = growth percent below 10; inactive = the rest.
Labels: yes (1) (active), no (0) (inactive)

Compound | Assayed system | Label class
O=C(NC1CCCCC1)c1ccc(Cl)cc1 | SR leukemia | no (0)
O=Cc1c(O)c2ccccc2[nH]c1=O | SR leukemia | no (0)
c1ccc(Oc2c3ccccc3nc3ccccc23)cc1 | SR leukemia | yes (1)
Nc1cc(N)ncn1 | SR leukemia | no (0)
Cc1ccc(NC(=O)c2ccccc2Cl)cc1 | SR leukemia | no (0)
CCCCCCCCCCCCCCCCCCSC(=N)N | SR leukemia | yes (1)
S=c1nc(-c2ccccn2)c(-c2ccccn2)n[nH]1 | SR leukemia | no (0)

###

- Tested on: HT29 colon
- Assay info: NCI-60 one-dose screen, 48 h
- Test conditions: 10 µM unless noted
This is part of a sample that, as a whole, favours compounds with a hit. Of some 83,000 tested, about 20% had one in any assay. Active and inactive are the calls of the source. How the source made its calls: active means growth percent below 10; inactive means the rest.
Outcome codes: Yes (active), No (inactive)

Compound | Label class
CC(C)NC(=O)OCc1c(COC(=O)NC(C)C)c(-c2ccc(Cl)cc2)n2c1CCC2 | No
CCN1CCCC(N2c3ccccc3Sc3ccccc32)C1 (stereo not drawn) | No
CC1CN(CCO)CC(C)O1 (stereo not drawn) | No
CC(=O)c1cccc(O)c1 | No
CC(=O)c1cc(O)ccc1O | No
CCCCCC/C=C\CCCCCCCCCc1cc(O)cc(OC)c1O | Yes
O=S(=O)(OCCOS(=O)(=O)c1ccccc1)c1ccccc1 | No
O=C(OCc1ccccc1)n1nnc2ccccc21 | No
COC(=O)c1cccc([N+](=O)[O-])c1 | No
O=c1cc(C(F)(F)F)[nH]c(=S)[nH]1 | No
Oc1cccc(CNC2CCCCC2)c1 | No
Cc1cc(Nc2ccc3c(c2)OCO3)c2cc3c(cc2n1)OCO3 | No
COc1ccc(/C=N/NC(=O)COCC(=O)N/N=C/c2ccc(OC)cc2)cc1 | No

###

Here, each record is paired with measured growth data.
- Tested on: TK-10 renal
- Assay info: NCI-60 one-dose screen, 48 h (100 = growth as untreated, 0 = no growth, -100 = all killed)
- Test conditions: 10 µM unless noted
The panel holds about 83,000 compounds, 20% with a hit somewhere; the sample as a whole holds those more often. The source made the active and inactive calls. The calls were made as follows: active = growth percent below 10; inactive = the rest.

Molecule | growth
CCN(CC)CCCC(C)NC(=S)N/N=C(\C)c1ccccn1 (configuration not stated) | 48.4% (inactive)
O=c1nc(Nc2cccc(Cl)c2)oc2cc(Cl)oc(=O)c12 | 98.1% (inactive)
Nc1nc(Cl)cc(Cl)n1 | 93.6% (inactive)
O=C1C=C[C@H](O)[C@@]2(CO)O[C@@H]12 | 109% (inactive)
O=C(OCC1CCCO1)c1ccc([N+](=O)[O-])cc1 (configuration not stated) | 99.4% (inactive)
Cc1ccc(NC(=S)N2CCOCC2)cc1C | 103% (inactive)
O=Cc1c(O)c2ccccc2[nH]c1=O | 106% (inactive)

###

- Tested on: MALME-3M melanoma
- Assay info: NCI-60 one-dose screen, 48 h
- Test conditions: 10 µM unless noted
About 83,000 compounds went through this panel and 20% of them were active in at least one assay; those are over-represented in the sample as a whole. Activity calls are given as the source filed them. Rule for the calls: active = growth percent below 10; inactive = the rest.
Possible outcomes: active, inactive

Molecule | Label class
COc1cc2c(c(OC)c1OC)-c1ccc(SC)c(=O)cc1[C@@H](NC1OC(CO)C(O)C(O)C1O)CC2 (some centres not stated) | inactive
N#C/C(=C\c1ccc(C#N)cc1)C(=O)c1ccccc1 | inactive
C/C=C/C1OCC(CC)C(CCC)O1 (configuration not stated) | inactive
NC(CSSCC(N)C(=O)O)C(=O)O (configuration not stated) | active
Cc1ccc(S(N)(=O)=O)cc1Cl | inactive
Cc1cccc2ccccc12 | inactive
O=C1C=C(c2ccccc2)C(O)(c2ccccc2)C1 (configuration not stated) | inactive

###

- System: CAKI-1 renal
- Assay info: NCI-60 one-dose screen, 48 h (100 = growth as untreated, 0 = no growth, -100 = all killed)
- Test conditions: 10 µM unless noted
About 83,000 compounds went through this panel and 20% of them were active in at least one assay; those are over-represented in the sample as a whole.
Parameter: growth. Scope: all listed entries.

Compound | Unit of measurement | growth
COc1cccc(N=CNc2cccc(OC)c2)c1 | % | 87.7
NC(=O)OCCO | % | 99.6
CC(=O)C1C(=O)C(=O)N(c2ccc(Cl)c(Cl)c2)C1=O (stereo unspecified) | % | 93.4
C=C(C)[C@@H]1CC[C@]2(CO)CC[C@]3(C)[C@H](CC[C@@H]4[C@@]5(C)CC[C@H](O)C(C)(C)[C@@H]5CC[C@]43C)[C@@H]12 | % | 72.6
CS(=O)(=O)c1ccc(/C=C\C(=O)O)cc1 | % | 98.2
CCc1ccccc1C(=O)N(CC)CC | % | 99.7
Cc1ccc(S(=O)(=O)NC(=O)NCCSSCCNC(=O)NS(=O)(=O)c2ccc(C)cc2)cc1 | % | 96.5
N#C/C(=C\c1ccc2c(c1)OCO2)c1ccccc1 | % | 58.9
Nc1c(Br)cc(O)c2c1C(=O)c1ccccc1C2=O | % | 83.8
Cc1ccc(Cc2ccc(C)cc2)cc1 | % | 99.8
OCCc1ccc(Cl)cc1 | % | 92.7
O=S(=O)(OCCOS(=O)(=O)c1ccccc1)c1ccccc1 | % | 89.8
CC12CCC3c4ccc(O)cc4CCC3C1CCC2=O (stereo unspecified) | % | 102
Nc1ccn(C2OC(CO)C(O)C2F)c(=O)n1 (stereo unspecified) | % | 69.8
COC(=O)Cc1cc(COC(C)=O)ccc1C | % | 116
Cc1ccc(NCN2C(=O)c3ccccc3C2=O)c(C)n1 | % | 105
CCOC(=O)/C(O)=C(\C=N\C(=S)Nc1ccc(Cl)c(Cl)c1)C(=O)OCC | % | 89.2
CC1=CC(=Nc2ccc(N(C)C)cc2)C=C(C)C1=O | % | 91.2
ClCC(Cl)C1CCC(Cl)C(Cl)C1 (stereo unspecified) | % | 97.2
CCNC(=O)OCCc1c2ccccc2nc2ccccc12 | % | 121
COc1ccc(-c2csc(NC(=O)Nc3nc(-c4ccc(OC)cc4)cs3)n2)cc1 | % | 81.5
OCc1cccnc1 | % | 35.5
COC(CCCl)c1ccc(Cl)cc1 (stereo unspecified) | % | 101
C[n+]1cc2cc3c(cc2c2ccccc21)OCO3 | % | 102
CCOC(OCC)C(=O)c1ccccc1 | % | 107
CCCCCCCCCc1ccc(OC(C)=O)cc1 | % | 103

###

- Tested on: SN12C renal
- Assay info: NCI-60 one-dose screen, 48 h (100 = growth as untreated, 0 = no growth, -100 = all killed)
- Test conditions: 10 µM unless noted
This is part of a sample that, as a whole, favours compounds with a hit. Of some 83,000 tested, about 20% had one in any assay. Calls of active or inactive are those of the source. Rule for the calls: active = growth percent below 10; inactive = the rest.

Compound | growth
CCN(C(=O)Nc1ccccc1Cl)c1ccccc1 | 113% (inactive)
Cc1ccc(NCN2C(=O)c3ccccc3C2=O)c(C)n1 | 111% (inactive)
Cc1cc(Cl)cc(Cc2cc(Cl)cc(C)c2O)c1O | 2.59% (active)
C=C(c1ccc(N(C)C)cc1)c1ccc(N(C)C)cc1 | 1.84% (active)
C=CCN1CCCC1=O | 94.2% (inactive)
Cc1cc(Cc2ccccc2)c(O)c(Cc2ccccc2)c1 | 79.7% (inactive)
CC(CCC#N)(CCC#N)C(=O)c1ccccc1 | 102% (inactive)
Cc1ccc(/C=N/NC(N)=S)s1 | 99% (inactive)
O=C(Nc1c(Cl)cc(Cl)cc1Cl)ON=C1CCCCC1 | 98.4% (inactive)
C=C1SC(=Nc2c(C)cccc2C)N(c2nc(Cl)nc(Cl)n2)C12CCCCC2 | 107% (inactive)
C=C(OC(C)=O)c1ccccc1 | 96% (inactive)
Cc1ccc(N)c(S(=O)(=O)O)c1 | 100% (inactive)
O=C(CCl)Oc1ccc([N+](=O)[O-])cc1 | 116% (inactive)
Oc1ccc2ccccc2c1CN1CCOCC1 | 107% (inactive)
O=S1(=O)c2ccccc2Oc2ccccc21 | 96.8% (inactive)
O=S(=O)(O)c1cccc2cccnc12 | 103% (inactive)
Cc1ccc(OC(=O)c2ccccc2)cc1 | 109% (inactive)
C/C(Cc1ccccc1)=N\O | 107% (inactive)
S=C=Nc1ccc2ccccc2c1 | 111% (inactive)
CC(C)=CCC[C@@H](C)[C@H]1CC[C@@]2(C)C3=C(CC[C@]12C)[C@@]1(C)CC[C@H](O)C(C)(C)[C@@H]1CC3 | 102% (inactive)
COC1OC(C(O)C(O)CO)C(O)C(O)C1O (stereo not drawn) | 94.1% (inactive)
N=C(N)c1nn(C2OC(CO)C(O)C2O)c2nc[nH]c(=O)c12 (stereo not drawn) | 6.98% (active)
CCCC(OC(C)=O)c1ccc2c(c1)OCO2 (stereo not drawn) | 106% (inactive)
COc1ccc2c(c1)Nc1ccccc1S2 | 107% (inactive)
Oc1cc(O)c2c(c1)O[C@H](c1ccc(O)c(O)c1)[C@@H](O)C2 | 102% (inactive)
C/C(=N\O)c1ccccn1 | 91.4% (inactive)
O=C(OC1CCCC1)c1ccccc1Cl | 108% (inactive)
CC(C)(N)CO[C@H]1C[C@H]2CC[C@@]1(C)C2(C)C | 100% (inactive)
